// data source = patent US20240025949A1

- tgt: human angiotensin 2 type 1 receptor (human) (UniProt P30556)
- Sequence (P30556 whole entry): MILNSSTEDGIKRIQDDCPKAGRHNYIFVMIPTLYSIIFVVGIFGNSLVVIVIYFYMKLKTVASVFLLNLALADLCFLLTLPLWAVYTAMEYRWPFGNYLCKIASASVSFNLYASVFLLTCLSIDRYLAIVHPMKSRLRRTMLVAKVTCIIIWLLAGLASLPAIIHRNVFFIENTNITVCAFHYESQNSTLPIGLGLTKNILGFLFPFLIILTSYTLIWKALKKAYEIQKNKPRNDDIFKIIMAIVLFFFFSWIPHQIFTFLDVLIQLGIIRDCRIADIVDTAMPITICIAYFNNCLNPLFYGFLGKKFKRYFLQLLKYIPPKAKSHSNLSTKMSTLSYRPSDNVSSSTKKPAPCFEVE
- measurement.protocol: cell-based or functional assay
Where no end group is shown, it is not given here.
recorded.metric: b-arrestin2 Max (%)
Quick reminder: number only, in %, skip the unit.

Fill in: b-arrestin2 Max of RVYRHPA (N-terminal Sar; C-terminal acid) [SEQ ID NO: 24 (Sar-Arg-Val-Tyr-Arg-His-Pro-Ala-OH)] is ___ 61.3

Fill in: b-arrestin2 Max of DRVYFHP-NH2 [SEQ ID NO: 63 (Asp-Arg-Val-Tyr-Phe-His-Pro-NH2)] is ___ 35.9

Fill in: b-arrestin2 Max of RVYFHPA (N-terminal Sar; C-terminal acid) [SEQ ID NO: 21 (Sar-Arg-Val-Tyr-Phe-His-Pro-Ala-OH)] is ___ 64.4

Fill in: b-arrestin2 Max of RVYIHP (N-terminal Sar; C-terminal norvaline) [SEQ ID NO: 35 (Sar-Arg-Val-Tyr-Ile-His-Pro-NVA-OH)] is ___ 67.9

Fill in: b-arrestin2 Max of RVYVHPA (N-terminal Me2Gly; C-terminal acid) [SEQ ID NO: 31 (Me2G-Arg-Val-Tyr-Val-His-Pro-Ala-OH)] is ___ 58.1

Fill in: b-arrestin2 Max of FVYIHPFVYIHPFVYIHP (cyclic) [SEQ ID NO: 37 (Cyclo(Phe-Val-Tyr-Ile-His-Pro-Phe-Val-Tyr-Ile-His-Pro-Phe-Val-Tyr-Ile-His-Pro))] is ___ 62.3

Fill in: b-arrestin2 Max of RVYKHPA (N-terminal Sar; C-terminal acid) [SEQ ID NO: 23 (Sar-Arg-Val-Tyr-Lys-His-Pro-Ala-OH)] is ___ 61.2

Fill in: b-arrestin2 Max of RVYYHP (N-terminal Sar; C-terminal amide) [SEQ ID NO: 26 (Sar-Arg-Val-Tyr-Tyr-His-Pro-NH2)] is ___ 51.9

Fill in: b-arrestin2 Max of RVYYHPI (N-terminal Sar; C-terminal acid) [SEQ ID NO: 14 (Sar-Arg-Val-Tyr-Tyr-His-Pro-Ile-OH)] is ___ 59.3

Fill in: b-arrestin2 Max of DRVYYHP (N-methyl; C-terminal amide) [SEQ ID NO: 61 (N-Me-Asp-Arg-Val-Tyr-Tyr-His-Pro-NH2)] is ___ 37.5

Fill in: b-arrestin2 Max of RVYYHP (N-terminal Sar; C-terminal D-Phe) [SEQ ID NO: 28 (Sar-Arg-Val-Tyr-Tyr-His-Pro-D-Phe-OH)] is ___ 82.9

Fill in: b-arrestin2 Max of RVYIHP-NH2 [SEQ ID NO: 13 (Arg-Val-Tyr-Ile-His-Pro-NH2)] is ___ 43.4

Fill in: b-arrestin2 Max of RVYEHPI (N-terminal Sar; C-terminal acid) [SEQ ID NO: 16 (Sar-Arg-Val-Tyr-Glu-His-Pro-Ile-OH)] is ___ 56.9

Fill in: b-arrestin2 Max of RVYHHPA (N-terminal Sar; C-terminal acid) [SEQ ID NO: 22 (Sar-Arg-Val-Tyr-His-His-Pro-Ala-OH)] is ___ 54.5

Fill in: b-arrestin2 Max of RVYYHPA (N-terminal Sar; C-terminal acid) [SEQ ID NO: 19 (Sar-Arg-Val-Tyr-Tyr-His-Pro-Ala-OH)] is ___ 67.9

Fill in: b-arrestin2 Max of RVYVHPI (N-terminal Sar; C-terminal amide) [SEQ ID NO: 12 (Sar-Arg-Val-Tyr-Val-His-Pro-Ile-NH2)] is ___ 19.9

Fill in: b-arrestin2 Max of RVYYHPI (N-terminal Sar; C-terminal amide) [SEQ ID NO: 15 (Sar-Arg-Val-Tyr-Tyr-His-Pro-Ile-NH2)] is ___ 44.3

Fill in: b-arrestin2 Max of DRVYYHP-NH2 [SEQ ID NO: 57 (Asp-Arg-Val-Tyr-Tyr-His-Pro-NH2)] is ___ 42.1

Fill in: b-arrestin2 Max of RVYVHPI (N-terminal Sar; C-terminal acid) [SEQ ID NO: 11 (Sar-Arg-Val-Tyr-Val-His-Pro-Ile-OH)] is ___ 58.9
